# Tested on: 743489-274-T-PDC complex spheroid viability;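 note: spheroids exposed to compounds for 7 days before readout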
# assayProtocol: Anticancer human tumor 743489-274-T-PDC patient-derived renal cell carcinoma cell line growth inhibition
# conditionSummary: second compound 0.316 µM; first compound 0.000949 µM; stronger effect = lower value
Decide using viability, T/C alone. Strictly below 90%: Satisfied. Equal to or above 90%: Not satisfied.

>  <compound>
CCc1c2c(nc3ccc(O)cc13)-c1cc3c(c(=O)n1C2)COC(=O)[C@]3(O)CC + NC1CCC(NC2CC2c2ccccc2)CC1

>  <assayedTarget>
743489-274-T-PDC complex spheroid viability;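 note: spheroids exposed to compounds for 7 days before readout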

>  <label>
Not satisfied

$$$$

Bench note: check whether Nc1ncn(C2CC(O)C(CO)S2)c(=O)n1 (stereo unspecified) + NC1CCC(NC2CC2c2ccccc2)CC1 shows viability, T/C below 90% Not satisfied

Bench note: check whether Nc1ccn(C2OC(CO)C(O)C2(F)F)c(=O)n1 (stereo unspecified) + NC1CCC(NC2CC2c2ccccc2)CC1 shows viability, T/C below 90% Satisfied

Bench note: check whether CCc1c2c(nc3ccc(O)cc13)-c1cc3c(c(=O)n1C2)COC(=O)[C@]3(O)CC + NC1CC1c1ccc(-c2cccc(O)c2)cc1 shows viability, T/C below 90% Satisfied

Bench note: check whether Nc1ncn(C2CC(O)C(CO)S2)c(=O)n1 (stereo unspecified) + NC1CC1c1ccc(-c2cccc(O)c2)cc1 shows viability, T/C below 90% Not satisfied

Bench note: check whether Nc1ccn(C2OC(CO)C(O)C2(F)F)c(=O)n1 (stereo unspecified) + NC1CC1c1ccc(-c2cccc(O)c2)cc1 shows viability, T/C below 90% Satisfied
